Origin of values: patent US20180021467A1

Target: TAAR5 (Homo sapiens)
Sequence (O14804 whole entry): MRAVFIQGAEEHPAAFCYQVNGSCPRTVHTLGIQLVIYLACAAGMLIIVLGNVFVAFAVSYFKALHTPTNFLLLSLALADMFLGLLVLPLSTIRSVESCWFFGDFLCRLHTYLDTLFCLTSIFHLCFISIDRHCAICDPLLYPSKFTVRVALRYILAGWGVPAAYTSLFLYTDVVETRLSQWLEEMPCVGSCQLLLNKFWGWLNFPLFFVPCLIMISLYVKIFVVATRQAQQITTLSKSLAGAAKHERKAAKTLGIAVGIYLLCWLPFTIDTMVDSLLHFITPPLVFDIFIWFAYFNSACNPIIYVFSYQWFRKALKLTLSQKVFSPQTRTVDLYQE
Experiment: Antagonist screen of odor library on TAAR5 with agonist TMA (Dual-Glo luciferase assay, Hana3A cells)
Type: cell-based
Design: TAAR open reading frames were amplified from pooled human genomic DNA using Phusion polymerase and subcloned into a pCI expression vector; Rho tag (first 20 residues of human rhodopsin); expressed in transfected cells; host or cells: Hana3A cells
Conditions: inhibition of TMA/TAAR5 response; test odor at 30 μM; TMA at EC80; read-out: Percent Inhibition
quantityMeasured: inhibition at 30 µM
Note: state the figure and append the unit.

Use the examples below as a reference point.
{"molecule": "CC(=O)C1(C)CC2=C(CCCC2(C)C)CC1C (stereo not shown)", "result": "69.6%"}
{"molecule": "CC1COCc2cc3c(cc21)C(C)(C)C(C)C3(C)C (stereo not shown) [Galaxolide]", "result": "71.2%"}
{"molecule": "CC/C=C/CC/C=C/C=O [Trans, trans-2,6-Nonadienal]", "result": "71.4%"}

Output measured inhibition at 30 µM for this item: `CCCCCC=O`
69.4%
